System: HCT-116
test-method-notes: NCI tumour cell line growth inhibition, 48 h
Calls of active or inactive are those of the source. Rule as the data show it: active = GI50 up to about 1.1 µM and inactive = higher.
// allowed return values: active, inactive

Consider the worked cases shown below.
- COC(=O)C12OCC34C(CC5C(C)C6=CC(=O)OC6=CC5(C)C3C(O)C1O)OC(=O)C(O)C24 (stereo not drawn): active
- Nc1nc(F)nc2c1ncn2C1OC(COP(=O)(O)O)C(O)C1O (stereo not drawn): inactive

Just curious, what result did O=S(O)c1cc(Cl)cc(Cl)c1O get here?
inactive

And then O=c1cnc2cc3ccccc3cc2[nH]1 , what is it?
inactive

And then CC(=O)NC1C(CO)O[C@@H]2OC(C)(C)O[C@H]12 (stereo partly drawn) , what is it?
inactive

And then O=c1[nH]nc(-c2cccc([N+](=O)[O-])c2)[nH]1 , what is it?
inactive

And then CCCCOC(=O)C(O)Cc1ccoc1 (stereo not drawn) , what is it?
inactive

And then CCOC(=O)CC[C@@H](NC(=O)c1ccc(NCc2ccc3nc(OC)c(OC)nc3c2)cc1)C(=O)OCC , what is it?
inactive

And then CCOC(=O)CCC(NC(=O)c1ccc(Oc2nc3ccc(C(F)(F)F)cc3nc2-c2ccccc2)cc1)C(=O)OCC (stereo not drawn) , what is it?
inactive

And then CC(C)C(=O)/C=C/S/C=C/C(=O)C(C)C , what is it?
inactive

And then Clc1ccc(CCN(CCc2ccc(Cl)c(Cl)c2)CCN2CCCC2)cc1Cl , what is it?
inactive
